Recorded values, source patent US20260152573A1.

Each entry below lists one item and its recorded Kd value.
Molecular target: T1, human serum albumin (human, UniProt P02768 25-609)
T1 construct: Immobilised on SPR chips; also added in solution in the FcRn occupancy assays; also called HSA; humanSA
Assay: SPR Biacore 8K+ SCK, albumin on chip, pH 5.5
Unit nM implied. Number only.

// solved cases for Kd follow
BINDER: Alb23 G33A/S101A (VHH, VHH alone) VHH: EVQLLESGGGLVQPGGSLRLSCAASGFTFRSFAMSWVRQAPGKGPEWVSSISGSGSDTLYADSVKGRFTISRDNSKNTLYLQMNSLRPEDTAVYYCTIGGALSRSSQGTLVTVSS
SCALE_UNIT: nM
TEST_RESULT: 55

BINDER: Alb23 (VHH, VHH alone, injected in solution; also called VHH-Alb23_Parental (#1); Alb23 parental) VHH: EVQLLESGGGLVQPGGSLRLSCAASGFTFRSFGMSWVRQAPGKGPEWVSSISGSGSDTLYADSVKGRFTISRDNSKNTLYLQMNSLRPEDTAVYYCTIGGSLSRSSQGTLVTVSS
SCALE_UNIT: nM
TEST_RESULT: 1.42

BINDER: Alb23 L59A (VHH, VHH alone) VHH: EVQLLESGGGLVQPGGSLRLSCAASGFTFRSFGMSWVRQAPGKGPEWVSSISGSGSDTAYADSVKGRFTISRDNSKNTLYLQMNSLRPEDTAVYYCTIGGSLSRSSQGTLVTVSS
SCALE_UNIT: nM
TEST_RESULT: 28.6

Param item = Alb23 G99A (VHH, VHH alone) VHH: EVQLLESGGGLVQPGGSLRLSCAASGFTFRSFGMSWVRQAPGKGPEWVSSISGSGSDTLYADSVKGRFTISRDNSKNTLYLQMNSLRPEDTAVYYCTIAGSLSRSSQGTLVTVSS ; retrieve measured Kd.
42.5
